experiment: Growth inhibition of human A549 cells after 72 hrs by MTT assay; format: functional, cell-based; conditions: A549, 72 h
measure: log10 of IC50 (log10 of the value in µM)
Parameter value (number): base-10 log of IC50 in µM.

Enquiry: Which log10 of IC50 value is on record for "O=c1cc(Cn2cc(-c3ccc(Br)cc3)nn2)c2ccc(O)cc2o1" ?
Return: 1.51

Enquiry: Follow-up item: "O=c1cc(Cn2cc(C3CC3)nn2)c2ccc(O)cc2o1"
Return: 1.96

Enquiry: Try "O=c1cc(Cn2cc(CCc3ccccc3)nn2)c2ccc(O)cc2o1" next.
Return: 1.39

Enquiry: Another: "O=c1cc(Cn2cc(CSC(=S)N3CCNCC3)nn2)c2ccc(O)cc2o1"
Return: 1.98

Enquiry: What do we get for "O=c1cc(Cn2cc(CCO)nn2)c2ccc(O)cc2o1" ?
Return: 1.96

Enquiry: Now the same for CCCC1CCC(c2ccc(-c3cn(Cc4cc(=O)oc5cc(O)ccc45)nn3)cc2)CC1 (stereo unspecified)
Return: 1.61

Enquiry: Same again, this time with "O=c1cc(Cn2cc(CSC(=S)N3CCOCC3)nn2)c2ccc(O)cc2o1"
Return: 1.85

Enquiry: Next up: "O=c1cc(Cn2cc(Cn3ccc4cc(I)ccc43)nn2)c2ccc(O)cc2o1"
Return: 1.46

Enquiry: Queued: "Cc1ccc2c(Cn3cc(CNc4ccc(-c5nc6ccc(C)cc6s5)cc4)nn3)cc(=O)oc2c1"
Return: 1.66

Enquiry: How about "CCCCc1ccc(-c2cn(Cc3cc(=O)oc4cc(O)ccc34)nn2)cc1" ?
Return: 1.14

Enquiry: Likewise for "O=c1cc(Cn2cc(CNS(=O)(=O)c3ccc(F)cc3)nn2)c2ccc(O)cc2o1" ?
Return: 1.95

Enquiry: Same again, this time with "CC(C)(C)OC(=O)N1CCN(C(=S)SCc2cn(Cc3cc(=O)oc4cc(O)ccc34)nn2)CC1"
Return: 1.55

Enquiry: Queued: "CCCCCCCCc1cn(Cc2cc(=O)oc3cc(O)ccc23)nn1"
Return: 1.66

Enquiry: Try the compound "CCCCCc1ccc(-c2cn(Cc3cc(=O)oc4cc(O)ccc34)nn2)cc1"
Return: 1.14

Enquiry: Another: "CCCCCCc1cn(Cc2cc(=O)oc3cc(O)ccc23)nn1"
Return: 1.82

Enquiry: Likewise for "CCCCCCc1ccc(-c2cn(Cc3cc(=O)oc4cc(O)ccc34)nn2)cc1" ?
Return: 0.95

Enquiry: Let us now turn to "O=c1cc(Cn2cc(CNS(=O)(=O)c3ccc(Cl)cc3)nn2)c2ccc(O)cc2o1"
Return: 1.68

Enquiry: Also check "Cc1ccc(S(=O)(=O)NCc2cn(Cc3cc(=O)oc4cc(O)ccc34)nn2)cc1"
Return: 1.67
